- MEASUREMENT TARGET: Claudin 18.2 (CLDN18.2), expressed on CHOS-CLDN 18.2 / HEK293-CLDN 18.2 / HCC827-CLDN 18.2 cells (human, UniProt P56856 1-261)
- EXPERIMENT DESCRIPTION: cell ELISA
OBSERVATION TYPE: EC50 (µg/mL)
Express it in µg/mL; write the number only.

# example entries with known answers
QP207208 (antibody, V domains shown) VH: EVQLQQSGPELVKPGASVKMSCKASGYTFTSYIMHWVKQKPGQGLEWIGYINPYNDGTKYNEKFKGKATLTSDKSSSTVYMELSSLTSEDSAVYCCARLGFTTRNAMDYWGQGTSVTVSS VL: DIVMTQSPSSLSVSAGEKVTMNCKSSQSLLNSGNQKNYLAWYQQKPGQPPKLLIYGASTRESGVPDRFTGSGSGTDFTLTISSVQAEDLAVYYCQNDHSYPFTFGSGTKLEIK	0.119
QP14381434 (antibody, V domains shown) VH: EVQLVESGGGLVKPGGSLRLSCAASGFTFSNYAMSWVRQAPGKRLEWVASIISGGRTYYLDSEKGRFTISRDNAKNSLYLQMNSLRAEDTAVYYCTRIYYGNSFDYWGQGTLVTVSS VL: DIVMTQSPDSLAVSLGERATISCKSSQSLLNSGNQKNYLTWYQQKPGQPPKLLIYWASTRESGVPDRFSGSGSGTDFTLTISSLQAEDVAVYYCQNDYSYPFTFGQGTKLEIK	0.145
QP14361434 (antibody, V domains shown) VH: EVQLVESGGGLVKPGGSLRLSCAASGFTFSNYAMSWVRQAPGKGLEWVSSIISGGRTYYLDSEKGRFTISRDNAKNSLYLQMNSLRAEDTAVYYCTRIYYGNSFDYWGQGTLVTVSS VL: DIVMTQSPDSLAVSLGERATISCKSSQSLLNSGNQKNYLTWYQQKPGQPPKLLIYWASTRESGVPDRFSGSGSGTDFTLTISSLQAEDVAVYYCQNDYSYPFTFGQGTKLEIK	0.17

Then this binder:
query: // fetch EC50 given entry QP14371435 (antibody, V domains shown) VH: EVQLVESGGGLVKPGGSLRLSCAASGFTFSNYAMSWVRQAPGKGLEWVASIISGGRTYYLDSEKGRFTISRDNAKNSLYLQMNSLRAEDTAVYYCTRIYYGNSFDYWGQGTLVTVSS VL: DIVMTQSPDSLAVSLGERATISCKSSQSLLNSGNQKNYLTWYQQKPGQPPKLLIYWASTRESGVPDRFTGSGSGTDFTLTISSLQAEDVAVYYCQNDYSYPFTFGQGTKLEIKR
result: 0.134
